All figures here come from ChEMBL document CHEMBL1201862.

System: SR
Assay: NCI tumour cell line growth inhibition, 48 h
Active and inactive are the calls of the source. Cut-off read from the data, not from the text of the source: active = GI50 up to about 1.1 µM and inactive = higher.
The molecules listed here are annotated with their GI50.
metric: GI50

molecule	metric	result-value
COc1cc2c3c(c1OC)-c1c(ccc4c1OCO4)CC3(C#N)N(C(=O)c1ccccc1)CC2 (stereo not given)	GI50	> 100 µM (inactive)
CCc1cc2c(cc1CCCC(=O)O)CC1(Cc3ccc(C(=O)O)cc3C1)C2 (stereo not given)	GI50	> 100 µM (inactive)
COc1ccc2c(c1)c(=O)c1c(NCCCN(C)C)ccc3ncn2c31	GI50	2.19 µM (inactive)
CCOC(=O)C(NC(=O)NC(C(=O)OCC)C(=O)OCC)C(=O)OCC	GI50	> 100 µM (inactive)
COc1ccc(C2C(Cl)C(=O)N2NC(=O)Cc2ccccc2)cc1 (stereo not given)	GI50	> 100 µM (inactive)
N#CC(N)(C(=O)C(=O)NCCCNC(=O)C(=O)C(N)(C#N)c1ccc(Cl)cc1)c1ccc(Cl)cc1 (stereo not given)	GI50	> 100 µM (inactive)
COc1cccc(N2C(=O)C3c4[nH]c5ccc(C)cc5c4C4CCC(C(C)(C)C)CC4C3C2=O)c1 (stereo not given)	GI50	2 µM (inactive)
CCCC[C@H]1[C@@H](OCOc2ccccc2)COC(=O)N1[C@H](C)c1ccccc1	GI50	8.49 µM (inactive)
CC1=C[C@]2(CC(C)C3C(CC4(C)C5CCC6C(C)(C)C(=O)CC[C@@]67C[C@@]57CC[C@]34C)O2)OC1=O (stereo not given in full)	GI50	3.82 µM (inactive)
CCOC(=O)CCC(NC(=O)c1ccc(Oc2nc3ccccc3nc2C(=O)OCC)cc1)C(=O)OCC (stereo not given)	GI50	> 100 µM (inactive)
C[n+]1c2ccccc2c(C(=O)NC(CCCNC(=N)N)C(=O)O)c2ccccc21 (stereo not given)	GI50	1.31 µM (inactive)
C=CCN1C(=O)CS/C1=N\NC(=O)c1c(C)nc2sccn12	GI50	> 100 µM (inactive)
CC12OC3(C(O)C1O)C(C(=O)O[C@H]3CO[Si](C)(C)C(C)(C)C)C2S(=O)(=O)c1ccccc1 (stereo not given in full)	GI50	41.9 µM (inactive)
CC(=O)CC(=O)N1CCSC1=S	GI50	> 10 µM (inactive)
O=C(COc1ccc(Cl)cc1)N1N=C(c2ccc(Cl)cc2)CC1(O)c1ccccc1 (stereo not given)	GI50	3.69 µM (inactive)
O=C1N2Cc3c4ccc5c3CN3C(=O)N6Cc7c(ccc(c7CN1C6(c1ccccc1)C23c1ccccc1)OCCOCCOc1cc(Br)c(Br)cc1OCCOCCO4)OCCOCCOc1cc(Br)c(Br)cc1OCCOCCO5 (stereo not given)	GI50	> 100 µM (inactive)
CCOC(=O)C(O)(NC(=O)c1ccc(F)cc1)C(F)(F)F (stereo not given)	GI50	> 100 µM (inactive)
COc1cc(C(=O)n2c3ccc(Br)cc3c3nc4ccccc4nc32)cc(OC)c1OC	GI50	> 100 µM (inactive)
COc1ccc(C2C3COc4ccccc4C3=NN2c2ccccc2)cc1 (stereo not given)	GI50	31.6 µM (inactive)
COc1cccc2c1C(=O)OC2c1cccc2ccccc12 (stereo not given)	GI50	> 100 µM (inactive)
O=C(O)c1ccc2c(c1)CC1(C2)Cc2cc3c(cc2C1=O)CCC3 (stereo not given)	GI50	> 100 µM (inactive)
CC(C)C1COC(C(C)(C)C2=N[C@@H](C(C)C)CO2)=N1 (stereo not given in full)	GI50	> 100 µM (inactive)
C=C1CC2CC(=O)C(O)C(C1)C2 (stereo not given)	GI50	> 100 µM (inactive)
O=C(C[N+]1(c2ccccc2)CCOCC1)c1ccccc1	GI50	34.8 µM (inactive)
Cc1[nH]c(-c2ccccc2)c(O)c1C(=O)OC12CC3CC(CC(C3)C1)C2	GI50	12.6 µM (inactive)
CC(=O)NNc1nc(-c2ccc([N+](=O)[O-])cc2)c(C#N)c(=O)n1C	GI50	13.9 µM (inactive)
CC(=O)OC1C(O)C(C)OC(OC2C(OC(=O)C3CCC4C(C3)OC3(CC(OC(=O)/C=C/c5ccccc5)C(C)CO3)C43CO3)OC(C)C(O)C2OC(C)=O)C1O (stereo not given)	GI50	0.00258 µM (active)
COc1ccccc1NC(=O)CC(=O)n1nc(-c2ccccc2)c(/N=N/c2ccccc2[N+](=O)[O-])c1-c1ccccc1	GI50	> 100 µM (inactive)
Cc1ccccc1OCC(COC(=O)Nc1ccccc1)OC(=O)Nc1ccccc1 (stereo not given)	GI50	12.1 µM (inactive)
NC(=O)/N=C1\NCCC(=O)N1CCc1c[nH]c2ccccc12	GI50	25.8 µM (inactive)
O=C(Cn1c2ccc(Br)cc2c2nc3ccccc3nc21)N/N=C/c1ccccc1	GI50	78.2 µM (inactive)
O=C(/C=C/c1ccccc1)Oc1cccc(Br)c1	GI50	23.4 µM (inactive)
CC(C)C(NCc1c2ccccc2[n+](C)c2ccccc12)C(=O)O (stereo not given)	GI50	0.748 µM (active)
CCOC(=O)c1cccn1S(=O)(=O)c1cc(Cl)ccc1NC(=O)CC	GI50	> 10 µM (inactive)
COC1CC(N)(c2ccccc2)C(O)C(C)O1 (stereo not given)	GI50	> 100 µM (inactive)
N#Cc1ccc(-c2nc3c(N)ncnc3o2)cc1	GI50	> 100 µM (inactive)
CC1CCc2c(sc3ncnc(N/N=C/c4ccc(Cl)cc4)c23)C1 (stereo not given)	GI50	21.6 µM (inactive)
CN(C)C(=O)Oc1ccc(-c2cn3cc(NC(=O)c4ccccc4)ccc3n2)cc1	GI50	29.3 µM (inactive)
NS(=O)(=O)c1ccc(NC(=O)COC(=O)c2cccc3c(=O)c4ccccc4[nH]c23)cc1	GI50	4.03 µM (inactive)
O=C(O)c1nn(-c2ccccc2-c2nnc(O)nc2O)c(=O)[nH]c1=O	GI50	> 100 µM (inactive)
